- procedure_details: In vivo release of dexamethasone from 25% dexamethasone in benzyl benzoate (DB) injected into posterior segment, vitreous humor HPLC
- Design: species or system rabbit
- run_parameters: rabbit, vitreous humor, other: injected into the posterior segment of the eye, 6 mg; low dose: 25 μl 25% DB, end of the Day 7 to Day 60 period; read-out: mean level of dexamethasone in vitreous humor, declined to
readout: concentration at 60 day (µg/mL)
State the answer as a number, implicitly in µg/mL.

Looking for the measured concentration at 60 day of C[C@@H]1C[C@H]2[C@@H]3CCC4=CC(=O)C=C[C@]4(C)[C@@]3(F)[C@@H](O)C[C@]2(C)[C@@]1(O)C(=O)CO , can you help?
0.8
